# system_under_test: HLA-A*02:01 (human)
# assay_name: UV peptide exchange + HLA class I ELISA
# measurement_context: remark: other sources report otherwise
Decision: exchange rate vs Pos peptide compared against 10%; not below it gives Y, below it gives N.

These solved cases illustrate the format of a correct answer.
RVGNCKHLK (here or on the partner: biotinylated heavy chain) [P82 9-mer peptide (AR-V7 splice variant)] ... N
IVWWCPMSR (here or on the partner: biotinylated heavy chain) [P98 9-mer peptide (TP53 (R213D) frameshift)] ... N

Could you please find out whether CPMSRLRLA (here or on the partner: biotinylated heavy chain) [P46 9-mer peptide (TP53 (R213D) frameshift)] has exchange rate vs Pos peptide that meets 10% or exceeds it?
Y

Could you please find out whether FLFLLLPLS (here or on the partner: biotinylated heavy chain) [P87 9-mer peptide (AR-Intron splice variant)] has exchange rate vs Pos peptide that meets 10% or exceeds it?
Y

Could you please find out whether QLIAMDSAI (here or on the partner: biotinylated heavy chain) [P22 9-mer peptide (SLC45A3-ELK4 fusion)] has exchange rate vs Pos peptide that meets 10% or exceeds it?
Y

Could you please find out whether YCMAAPMGL (here or on the partner: biotinylated heavy chain) [P76 9-mer peptide (AR-V3 splice variant)] has exchange rate vs Pos peptide that meets 10% or exceeds it?
Y

Could you please find out whether LLERNSFEV (here or on the partner: biotinylated heavy chain) [P73 9-mer peptide (TP53 (G266E))] has exchange rate vs Pos peptide that meets 10% or exceeds it?
Y

Could you please find out whether RAKCKFSIL (here or on the partner: biotinylated heavy chain) [P56 9-mer peptide (SPOP(F102C))] has exchange rate vs Pos peptide that meets 10% or exceeds it?
N

Could you please find out whether HVPKILSGK (here or on the partner: biotinylated heavy chain) [P58 9-mer peptide (AR (Q903H))] has exchange rate vs Pos peptide that meets 10% or exceeds it?
Y
